Assay: Inhibition of acetylcholinesterase
pIC50: −log10 of the molar value.

| query-smiles | pIC50 |
| --- | --- |
| Nc1c2c(nc3c(CO)cccc13)CCCC2 | 6.90 |
